system: K562; experiment: Cytotoxicity against human K562 cells by MTT method; format: functional, cell-based
Recorded IC50 for the following compounds
Enter your answer as a number in µg/mL; do not include the unit.

Compound | IC50 / µg/mL
C=C1C(=O)[C@]23C[C@H]1CC[C@H]2[C@@]1(CCC[C@@]2(C)CO[C@@H](OC)[C@H]21)COC3=O | 0.18
C=C1[C@@H]2C[C@@H](O)[C@H]3[C@@]4(CCC[C@@]5(C)COC(=O)[C@H]54)COC(=O)[C@]3(C2)[C@@H]1O | 0.3
C=C1C(=O)[C@]23C[C@H]1CC[C@H]2[C@]1(COC3=O)C2CC[C@@]3(C)COC(O2)[C@H]31 (some centres not stated) | 0.83
C=C1C(=O)[C@]23C[C@H]1C[C@@H](O)[C@H]2[C@@]1(CCC[C@@]2(C)CO[C@H](OC)[C@H]21)COC3=O | 0.23
C=C1C(=O)[C@]23C[C@H]1C[C@@H](O)[C@H]2[C@@]1(CCC[C@@]2(C)COC(=O)[C@H]21)COC3=O | 0.25

Please give measured IC50 of the following entry: `C=C1C(=O)[C@]23C[C@H]1C[C@@H](O)[C@H]2[C@@]1(CCC[C@@]2(C)CO[C@@H](OC)[C@H]21)COC3=O`
0.87
